Target of assay: Cyclin-dependent kinase 5/CDK5 activator 1 (Homo sapiens, UniProt Q00535)
Sequence (Q00535 whole entry): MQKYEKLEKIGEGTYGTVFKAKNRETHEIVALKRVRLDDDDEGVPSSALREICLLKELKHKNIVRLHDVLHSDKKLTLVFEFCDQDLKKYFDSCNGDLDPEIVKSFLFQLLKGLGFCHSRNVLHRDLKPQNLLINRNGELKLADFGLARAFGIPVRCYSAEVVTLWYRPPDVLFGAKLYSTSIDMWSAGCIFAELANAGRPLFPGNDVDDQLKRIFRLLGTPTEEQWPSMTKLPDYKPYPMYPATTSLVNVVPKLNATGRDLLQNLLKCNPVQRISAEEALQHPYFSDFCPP
Sequence (Q15078 whole entry, further chain): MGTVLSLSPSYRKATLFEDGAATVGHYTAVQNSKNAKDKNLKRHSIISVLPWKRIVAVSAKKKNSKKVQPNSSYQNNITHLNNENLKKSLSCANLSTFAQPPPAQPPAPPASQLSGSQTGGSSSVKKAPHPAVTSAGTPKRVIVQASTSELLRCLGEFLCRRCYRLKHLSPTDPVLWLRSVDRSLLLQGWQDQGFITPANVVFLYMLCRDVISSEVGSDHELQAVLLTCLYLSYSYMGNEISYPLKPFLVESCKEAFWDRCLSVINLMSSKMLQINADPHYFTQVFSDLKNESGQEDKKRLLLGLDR
Test summary: Inhibition of human recombinant CDK5/p25 using histone H1 substrate and ATP
Labelling: IC50 reported below 1000 nM becomes fulfilled; at or above becomes not fulfilled.

Problem: Report whether reported IC50 is lower than 1000 nM (strictly) for CO[C@@H]1CCN2C(=O)c3cccc(NC(=O)Nc4cccc(C)n4)c3[C@@H]2C1 (relative stereo)
Result: not fulfilled

Problem: Report whether reported IC50 is lower than 1000 nM (strictly) for Cc1cccnc1NC(=O)Nc1cccc2c1[C@@H]1C[C@H](O)CCN1C2=O (relative stereo)
Result: fulfilled

Problem: Report whether reported IC50 is lower than 1000 nM (strictly) for CO[C@@H]1CCN2C(=O)c3cccc(NC(=O)Nc4ncccc4C)c3[C@@H]2C1 (relative stereo)
Result: not fulfilled

Problem: Report whether reported IC50 is lower than 1000 nM (strictly) for `O=C(Nc1ccccn1)Nc1cccc2c1[C@@H]1C[C@H](O)CCN1C2=O`
Result: not fulfilled

Problem: Report whether reported IC50 is lower than 1000 nM (strictly) for COc1cc(NC(=O)Nc2cccc3c2[C@@H]2C[C@H](OC)CCN2C3=O)nc2ccccc12 (relative stereo)
Result: not fulfilled

Problem: Report whether reported IC50 is lower than 1000 nM (strictly) for CO[C@@H]1CCN2C(=O)c3cccc(NC(=O)Nc4cc(C)ccn4)c3[C@@H]2C1 (relative stereo)
Result: fulfilled

Problem: Report whether reported IC50 is lower than 1000 nM (strictly) for CO[C@@H]1CCN2C(=O)c3cccc(NC(=O)Nc4cnccn4)c3[C@@H]2C1 (relative stereo)
Result: fulfilled
